# system.tested: Acetylcholinesterase (Homo sapiens)
# Sequence (P22303 whole entry): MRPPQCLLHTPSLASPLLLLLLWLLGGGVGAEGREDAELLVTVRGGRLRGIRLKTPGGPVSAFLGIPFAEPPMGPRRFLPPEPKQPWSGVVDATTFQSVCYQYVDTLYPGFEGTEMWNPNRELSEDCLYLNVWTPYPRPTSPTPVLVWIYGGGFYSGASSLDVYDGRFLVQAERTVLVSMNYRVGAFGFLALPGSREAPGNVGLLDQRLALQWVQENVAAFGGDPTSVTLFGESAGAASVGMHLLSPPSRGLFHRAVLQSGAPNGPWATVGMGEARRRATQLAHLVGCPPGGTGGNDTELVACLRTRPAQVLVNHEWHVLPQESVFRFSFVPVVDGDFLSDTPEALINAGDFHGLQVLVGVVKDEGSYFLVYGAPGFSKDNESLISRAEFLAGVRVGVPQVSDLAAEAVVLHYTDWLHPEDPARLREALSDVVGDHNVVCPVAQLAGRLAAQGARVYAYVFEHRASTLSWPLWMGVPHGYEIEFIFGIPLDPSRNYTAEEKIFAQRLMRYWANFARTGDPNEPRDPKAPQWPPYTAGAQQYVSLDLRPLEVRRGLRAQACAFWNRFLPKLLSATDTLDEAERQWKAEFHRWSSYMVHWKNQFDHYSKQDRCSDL
Lab note: anything with IC50 below 6 µM is marked true (1); values at 6 µM or higher are marked false (0).

> print(dat)
                               given.smiles      class
1  CN(CCCCCCCOc1ccc2c(=O)c3ccccc3oc2c1)Cc1ccccc1Cl  false (0)
2  CN(CCCCOc1ccc2c(=O)c3ccccc3oc2c1)Cc1ccccc1  false (0)
3  CN(CCCOc1ccc2c(=O)c3ccccc3oc2c1)Cc1ccccc1   true (1)
4  CN(CCCCCCCOc1ccc2c(=O)c3ccccc3oc2c1)Cc1ccccc1   true (1)
5  COc1cccc(CN(C)CCCCCCCOc2ccc3c(=O)c4ccccc4oc3c2)c1  false (0)
6  CN(CCCCCCOc1ccc2c(=O)c3ccccc3oc2c1)Cc1ccccc1   true (1)
